Assay: Plasma concentration was determined after 1 hr at a dose 30 mg/kg administered orally to rat-1
Assay type: ADME, organism-based
Parameters: dose 30 mg/kg, route oral
Conditions: po
parameter measured: concentration at 1 h (ng/mL)
Your answer should be a plain number; it is taken to be in ng/mL.

### Prompt Look up concentration at 1 h for this molecule: COc1ccc(CNC(=O)N2CCN(c3ncnc4cc(OC)c(OC)cc34)CC2)cc1
### Response 7300

----------
Assay: Plasma concentration was determined after 8 hr at a dose 30 mg/kg administered orally to rat-5
Type: ADME, organism-based
Design: dose 30 mg/kg, route oral
Conditions: po
parameter measured: concentration at 8 h (ng/mL)
Provide the reading as a plain figure in ng/mL.

### Prompt Consider the compound COc1cc2ncnc(N3CCN(C(=S)NCc4ccc(Cl)cc4)CC3)c2cc1OC and give its measured concentration at 8 h.
### Response 1300

----------
Biological target: Platelet-derived growth factor receptor (Homo sapiens, UniProt P09619+P16234)
Assay: Concentration required for 50% inhibition against autophosphorylation of Platelet-derived growth factor receptor beta in intact cells using a two site ELISA
The entries below are paired with their reported IC50.

- molecular string: "COc1cc2ncnc(N3CCN(C(=O)NS(=O)(=O)c4ccc(Cl)cc4)CC3)c2cc1OC"
  IC50: "> 30 µM"
- molecular string: "COc1cc2ncnc(N3CCN(C(=S)NCC4CCCCC4)CC3)c2cc1OC"
  IC50: "> 10 µM"

### Prompt Form field: reported IC50 of COc1cc2ncnc(N3CCN(C(=O)NCc4ccsc4)CC3)c2cc1OC
### Response > 30 µM

### Prompt Try the compound COc1cc2ncnc(N3CCN(C(=S)NC(=O)c4ccc(Cl)cc4)CC3)c2cc1OC
### Response > 30 µM

----------
Reported IC50 values are given for each entry in this list.
Molecular target: Platelet-derived growth factor receptor (Homo sapiens, UniProt P09619+P16234)
Experiment: Concentration required for 50% inhibition against autophosphorylation of Platelet-derived growth factor receptor beta in intact cells using a two site ELISA
Write it as a number; the unit µM goes unstated.

Use the examples below as a reference point.
- molecular string: "COc1cc2ncnc(N3CCN(C(=NC#N)NCc4ccc(Cl)cc4)CC3)c2cc1OC"
  target desc: "Platelet-derived growth factor receptor (Homo sapiens, UniProt P09619+P16234)"
  parameter measured: "IC50"
  recorded value: 0.96
- molecular string: "COc1cc2ncnc(N3CCN(C(=O)Nc4ccc(Br)cc4)CC3)c2cc1OC"
  target desc: "Platelet-derived growth factor receptor (Homo sapiens, UniProt P09619+P16234)"
  parameter measured: "IC50"
  recorded value: 0.53
- molecular string: "COc1cc2ncnc(N3CCN(C(=O)Nc4cccs4)CC3)c2cc1OC"
  target desc: "Platelet-derived growth factor receptor (Homo sapiens, UniProt P09619+P16234)"
  parameter measured: "IC50"
  recorded value: 0.41
- molecular string: "COc1cc2ncnc(N3CCN(C(=O)NCCc4ccc(Cl)cc4)CC3)c2cc1OC"
  target desc: "Platelet-derived growth factor receptor (Homo sapiens, UniProt P09619+P16234)"
  parameter measured: "IC50"
  recorded value: 5.84

### Prompt What value of IC50 has been recorded for this entry: COc1cc2ncnc(N3CCN(C(=S)Nc4ccncc4)CC3)c2cc1OC
### Response 0.98

### Prompt Could you do the same for COc1cc2ncnc(N3CCN(C(=O)Nc4cncc(Cl)c4)CC3)c2cc1OC , please?
### Response 8.23

### Prompt Same again, this time with COc1cc2ncnc(N3CCN(C(=NC#N)NCc4ccc(C(C)C)cc4)CC3)c2cc1OC
### Response 1.38

### Prompt // query: COc1cc2ncnc(N3CCN(C(=S)NCc4ccc(C(C)C)cc4)CC3)c2cc1OC
### Response 0.2

### Prompt Follow-up entry: COc1ccc(CNC(=O)N2CCN(c3ncnc4cc(OC)c(OC)cc34)CC2)cc1
### Response 3.06

----------
Biological target: Platelet-derived growth factor receptor (Homo sapiens, UniProt P09619+P16234)
Assay: Concentration required for 50% inhibition against autophosphorylation of Platelet-derived growth factor receptor beta in intact cells using a two site ELISA
parameter measured: IC50 (nM)
Write the number in nM without appending the unit.

### Prompt I would be grateful if you could share the reported IC50 for COc1cc2ncnc(N3CCN(C(=O)NCc4ccc(Br)cc4)CC3)c2cc1OC .
### Response 740

### Prompt Likewise for COc1cc2ncnc(N3CCN(C(=S)NCc4ccc(C(C)(C)C)cc4)CC3)c2cc1OC ?
### Response 160

### Prompt Would you mind doing COc1ccc(CNC(=S)N2CCN(c3ncnc4cc(OC)c(OC)cc34)CC2)cc1 as well?
### Response 100

### Prompt And for COc1cc2ncnc(N3CCN(C(=S)NCc4ccc(Cl)cc4)CC3)c2cc1OC ?
### Response 70

### Prompt Request: COc1cc2ncnc(N3CCN(C(=O)NCc4ccc(C(C)(C)C)cc4)CC3)c2cc1OC
### Response 110

Hey, just so you know, these numbers are from ChEMBL document CHEMBL1136005.
